Molecular target: PI3K p110 beta/p85 alpha (Homo sapiens, UniProt P42338)
Sequence (P27986 whole entry): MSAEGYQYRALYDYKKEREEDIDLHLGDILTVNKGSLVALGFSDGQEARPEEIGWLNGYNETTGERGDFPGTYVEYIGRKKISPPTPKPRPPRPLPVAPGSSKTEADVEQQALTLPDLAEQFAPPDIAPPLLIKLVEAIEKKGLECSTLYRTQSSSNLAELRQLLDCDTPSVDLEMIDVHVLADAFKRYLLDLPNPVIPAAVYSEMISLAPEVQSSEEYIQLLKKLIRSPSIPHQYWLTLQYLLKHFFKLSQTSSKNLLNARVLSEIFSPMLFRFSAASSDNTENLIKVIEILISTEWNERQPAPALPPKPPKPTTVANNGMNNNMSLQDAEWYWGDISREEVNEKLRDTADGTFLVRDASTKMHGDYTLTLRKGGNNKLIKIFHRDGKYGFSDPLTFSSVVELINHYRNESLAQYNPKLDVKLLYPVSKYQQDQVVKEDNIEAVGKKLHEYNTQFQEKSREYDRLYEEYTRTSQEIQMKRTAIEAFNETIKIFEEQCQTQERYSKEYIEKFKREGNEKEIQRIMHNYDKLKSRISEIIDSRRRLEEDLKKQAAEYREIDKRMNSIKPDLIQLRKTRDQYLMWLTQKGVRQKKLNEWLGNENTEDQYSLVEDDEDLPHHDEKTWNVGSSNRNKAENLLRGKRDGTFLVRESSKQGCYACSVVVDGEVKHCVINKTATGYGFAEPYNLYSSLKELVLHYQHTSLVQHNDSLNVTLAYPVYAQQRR
Sequence (P42338 whole entry): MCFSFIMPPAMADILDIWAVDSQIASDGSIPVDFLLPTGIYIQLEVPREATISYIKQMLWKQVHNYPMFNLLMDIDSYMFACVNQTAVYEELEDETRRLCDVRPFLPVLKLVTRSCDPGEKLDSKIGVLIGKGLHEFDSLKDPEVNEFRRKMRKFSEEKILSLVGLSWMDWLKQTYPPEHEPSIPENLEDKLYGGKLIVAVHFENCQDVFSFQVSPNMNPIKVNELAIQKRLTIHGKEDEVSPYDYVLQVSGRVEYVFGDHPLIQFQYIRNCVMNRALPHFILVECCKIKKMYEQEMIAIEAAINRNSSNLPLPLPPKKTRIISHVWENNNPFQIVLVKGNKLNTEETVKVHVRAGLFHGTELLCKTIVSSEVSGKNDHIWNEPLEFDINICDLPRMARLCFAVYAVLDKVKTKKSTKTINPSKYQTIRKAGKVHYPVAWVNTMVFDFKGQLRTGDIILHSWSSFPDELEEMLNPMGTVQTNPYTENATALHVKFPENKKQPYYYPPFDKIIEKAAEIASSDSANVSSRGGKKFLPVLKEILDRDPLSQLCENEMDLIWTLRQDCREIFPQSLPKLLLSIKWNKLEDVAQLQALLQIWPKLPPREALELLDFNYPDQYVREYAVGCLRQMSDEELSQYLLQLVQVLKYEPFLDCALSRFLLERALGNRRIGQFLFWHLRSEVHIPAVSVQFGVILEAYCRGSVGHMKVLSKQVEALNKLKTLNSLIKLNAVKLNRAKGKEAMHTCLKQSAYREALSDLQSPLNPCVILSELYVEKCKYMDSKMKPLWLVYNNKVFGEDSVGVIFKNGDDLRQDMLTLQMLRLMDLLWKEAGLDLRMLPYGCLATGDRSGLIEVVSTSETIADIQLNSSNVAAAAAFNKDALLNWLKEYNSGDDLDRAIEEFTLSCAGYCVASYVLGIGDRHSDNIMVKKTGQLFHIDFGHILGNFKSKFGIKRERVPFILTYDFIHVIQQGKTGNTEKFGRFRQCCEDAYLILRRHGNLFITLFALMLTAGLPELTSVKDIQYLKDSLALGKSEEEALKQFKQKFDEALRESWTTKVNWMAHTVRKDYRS
Test: Inhibition of N-terminal His6-tagged human recombinant full length PI3Kbeta co-expressed with human recombinant full length P85alpha in baculovirus infected Sf21 cells using PIP2 peptide as substrate incubated for 1 hr in presence ATP by ADP-Glo Kinase Assay
metric: Ki (nM)
Unit nM implied. Number only.

Consider the molecule N#Cc1c(N2CCOCC2)sc(-c2nc[nH]n2)c1-c1ccc(NC(=O)Nc2ccccc2Cl)cc1 and give its measured Ki.
89

---

Assay: Cmax in Sprague-Dawley rat at 5 mg/kg, iv measured after 24 hrs by LC-MS/MS analysis
Assay type: ADME, organism-based
Design: route intravenous, dose 5 mg/kg, time 24 hrs
Settings: in vivo
metric: Cmax (ng/mL)
Unit ng/mL implied. Number only.

Consider the compound N#Cc1c(N2CCOCC2)sc(-c2nc[nH]n2)c1-c1ccc(NC(=O)Nc2ccccc2Cl)cc1 and give its measured Cmax.
2570
